- Tested on: RPMI-8226 leukemia
- measurement protocol: NCI tumour cell line growth inhibition, 48 h
Listed here: items and their measured TGI.
attribute measured: TGI

compound	assay result
CSc1sc(=S)sc1C(=O)N(C)c1ccccc1	> 100 µM
O=C1C2C=CC(C2)C(c2ccc(O)cc2)N1O (stereo not given)	> 100 µM
CC(=O)OCC(=O)[C@@]12OC(C)(C)O[C@@H]1C[C@H]1[C@@H]3CC=C4C[C@@H](O)CC[C@]4(C)[C@H]3CC[C@@]12C	> 100 µM
COC(=O)NC12CC3CC(CC(F)(C3)C1)C2	> 100 µM
COC(=O)[C@@H](NC(=O)N(CCC#N)CCCN(C(=O)N[C@H](Cc1ccccc1)C(=O)OC)c1ccccc1)C(C)C	> 100 µM
